Target System: 6xHis-AtSUMO2-eGFP

| Protein | activity level (grade) |
| --- | --- |
| Saccharomyces cerevisiae Ulp1 SUMO protease catalytic domain (protein) MGLVPELNEKDDDQVQKALASRENTQLMNRDNIEITVRDFKTLAPRRWLNDTIIEFFMKYIEKSTPNTVAFNSFFYTNLSERGYQGVRRWMKRKKTQIDKLDKIFTPINLNQSHWALGIIDLKKKTIGYVDSLSNGPNAMSFAILTDLQKYVMEESKHTIGEDFDLIHLDCPQQPNGYDCGIYVCMNTLYGSADAPLDFDYKDAIRMRRFIAHLILTDALKLEHHHHHH | ++ |
| human SENP1 (hSENP1) SUMO protease catalytic domain (protein) MASFPEITEEMEKEIKNVFRNGNQDEVLSEAFRLTITRKDIQTLNHLNWLNDEIINFYMNMLMERSKEKGLPSVHAFNTFFFTKLKTAGYQAVKRWTKKVDVFSVDILLVPIHLGVHWCLAVVDFRKKNITYYDSMGGINNEACRILLQYLKQESIDKKRKEFDTNGWQLFSKKSQIPQQMNGSDCGMFACKYADCITKDRPINFTQQHMPYFRKRMVWEILHRKLLEHHHHHH | +/- |
| human SENP2 (hSENP2) SUMO protease catalytic domain (protein) MASLLELTEDMEKEISNALGHGPQDEILSSAFKLRITRGDIQTLKNYHWLNDEVINFYMNLLVERNKKQGYPALHVFSTFFYPKLKSGGYQAVKRWTKGVNLFEQEIILVPIHRKVHWSLVVIDLRKKCLKYLDSMGQKGHRICEILLQYLQDESKTKRNSDLNLLEWTHHSMKPHEIPQQLNGSDCGMFTCKYADYISRDKPITFTQHQMPLFRKKMVWEILHQQLLAAALEHHHHHH | + |
| Arabidopsis thalania ULP1c (AtULP1c) SUMO protease catalytic domain (protein) MVVEEACELPEGLPEDIYYPSSDQSDGRDLVQVSLKDLKCLSPGEYLTSPVINFYIRYVQHHVFSADKTAANCHFFNTFFYKKLTEAVSYKGNDRDAYFVKFRRWWKGFDLFCKSYIFIPIHEDLHWSLVIICIPDKEDESGLTIIHLDSLGLHPRNLIFNNVKRFLREEWNYLNQDAPLDLPISAKVWRDLPNMINEAEVQVPQQKNDFDCGLFLLFFIRRFIEEAPQRLTLQDLKMIHKKWFKPEEASALRIKIWNILVDLFRKGNQTDLEHHHHHH | - |
